# testTarget: human P2X3 receptor (Homo sapiens (Human), UniProt P56373)
# Sequence (P56373 whole entry): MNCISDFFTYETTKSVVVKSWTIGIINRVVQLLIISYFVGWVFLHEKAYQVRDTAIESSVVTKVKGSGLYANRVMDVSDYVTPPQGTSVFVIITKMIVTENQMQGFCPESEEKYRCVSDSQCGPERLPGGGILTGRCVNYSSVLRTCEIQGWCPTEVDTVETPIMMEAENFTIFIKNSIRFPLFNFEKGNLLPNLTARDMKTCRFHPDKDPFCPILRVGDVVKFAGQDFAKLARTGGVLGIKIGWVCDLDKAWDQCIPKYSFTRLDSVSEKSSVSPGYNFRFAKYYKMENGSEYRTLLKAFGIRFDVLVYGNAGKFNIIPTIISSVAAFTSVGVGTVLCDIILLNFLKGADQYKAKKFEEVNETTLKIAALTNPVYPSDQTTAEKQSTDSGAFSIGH
# assayName: Intracellular calcium measurement (FLIPR, Fluo-4) of antagonist activity at human P2X3 receptors
# Format: cell-based
# conditionInfo: human P2X3, FLIPR calcium assay, agonist α,β-Me-ATP; read-out: hP2X3 IC50
# Description: Intracellular Calcium Measurement to Assess Antagonist Activity at Human P2X3 and Human P2X2/3 Receptors A fluorescent imaging plate reader (FLEX/FLIPR station; Molecular Devices) was used to monitor intracellular calcium levels using the calcium-chelating dye Fluo-4 (Molecular Probes). […] The fluorescence was measured for an interval of 90 sec at 2 sec intervals and analyzed based on the increase in peak relative fluorescence units (RFU) compared to the basal fluorescence. […]
Items are presented alongside their recorded IC50.

| compound | unitsLabel | IC50 |
| --- | --- | --- |
| Cc1cnc(-c2cc(OC3CCN(C(C)C)CC3)cc(C(=O)N[C@H](C)c3ccc(C(F)(F)F)nn3)c2)s1 [Example 224] | nM | 9 |
| CCc1cnc(-c2cc(OC[C@@H]3CN(C)CCO3)cc(C(=O)N[C@H](C)c3cnc(C(F)(F)F)nc3)c2)s1 [Example 375] | nM | 11 |
| Cc1cnc(-c2cc(O[C@@H]3CCOC3)cc(C(=O)N[C@H](C)c3cnc(C(F)F)nc3)c2)s1 [Example 153] | nM | 27 |
| Cc1cnc(-c2cc(OC[C@@H]3CCOC3)cc(C(=O)N[C@H](C)c3ccc(C(F)(F)F)nn3)c2)s1 [Example 79] | nM | 9 |
| CCc1cnc(-c2cc(OC[C@H]3CNCCO3)cc(C(=O)N[C@H](C)c3ccc(C(F)(F)F)nn3)c2)s1 [Example 415] | nM | 10 |
| C[C@@H](NC(=O)c1cc(OC[C@H]2CCOC2)cc(-c2ncc(Cl)s2)c1)c1cnc(C(F)(F)F)nc1 [Example 323] | nM | 25 |
| Cc1cnc(-c2cc(O[C@@H]3CCOC3)cc(C(=O)NC(C)c3ncc(Cl)cc3F)c2)s1 (some centres unmarked) [Example 14] | nM | 8 |
| C[C@@H](NC(=O)c1cc(OC[C@H]2CN(C)CCO2)cc(-c2ncc(Cl)s2)c1)c1cnc(C(F)(F)F)nc1 [Example 367] | nM | 13 |
| Cc1cnc(CNC(=O)c2cc(OC3CCOCC3)cc(-c3ncc(C)s3)c2)cn1 [Example 83] | nM | 125 |
| C#CCOc1cc(C(=O)N[C@H](C)c2cnc(C)cn2)cc(-c2ncc(C)s2)c1 [Example 34] | nM | 111 |
| C[C@H](NC(=O)c1cc(OC[C@H]2CCOC2)cc(-c2ncc(C3CCC3)s2)c1)c1cnc(C(F)(F)F)nc1 [Example 239] | nM | 1420 |
| Cc1cnc(-c2cc(OC3CCS(=O)(=O)CC3)cc(C(=O)N[C@H](C)c3cnc(C(F)(F)F)nc3)c2)s1 [Example 232] | nM | 13 |
| CC(C)c1cnc(-c2cc(O[C@@H]3CCOC3)cc(C(=O)N[C@H](C)c3cnc(C(F)(F)F)nc3)c2)s1 [Example 248] | nM | 44 |
| CCc1cnc(-c2cc(OC[C@@H]3CCOC3)cc(C(=O)N[C@H](C)c3cnc(C(F)(F)F)nc3)c2)s1 [Example 260] | nM | 2 |
| COC(C)(C)COc1cc(C(=O)N[C@H](C)c2cnc(C)cn2)cc(-c2ncc(Cl)s2)c1 [Example 117] | nM | 36 |
| C[C@@H](NC(=O)c1cc(OC[C@@H]2CCCO2)cc(-c2ncc(C3CCC3)s2)c1)c1cnc(C(F)(F)F)nc1 [Example 287] | nM | 35 |
| CC#CCOc1cc(C(=O)N[C@H](C)c2ccc(C)nn2)cc(-c2ncc(C)s2)c1 [Example 191] | nM | 61 |
| Cc1cnc(-c2cc(Oc3nnc(C)s3)cc(C(=O)N[C@H](C)c3cnc(C(F)(F)F)nc3)c2)s1 [Example 111] | nM | 16 |
| Cc1cnc([C@@H](C)NC(=O)c2cc(Oc3ccnc(C)c3)cc(-c3ncc(C)s3)c2)cn1 [Example 102] | nM | 10 |
| Cc1cnc(-c2cc(OC[C@@H]3CCCO3)cc(C(=O)N[C@H](C)c3cnc(C(F)(F)F)nc3)c2)s1 [Example 58] | nM | 4 |
| Cc1cnc(-c2cc(OCC3CCN(C)CC3)cc(C(=O)N[C@H](C)c3cnc(C(F)(F)F)nc3)c2)s1 [Example 380] | nM | 32 |
| Cc1cnc(-c2cc(OCC3CN(C(C)C)CCO3)cc(C(=O)N[C@H](C)c3cnc(C(F)(F)F)nc3)c2)s1 (stereo in doubt) [Example 382] | nM | 13 |
| Cc1ccc([C@@H](C)NC(=O)c2cc(OC[C@H]3CCCO3)cc(-c3ncc(C4CCC4)s3)c2)nn1 [Example 270] | nM | 25 |
| Cc1cnc(-c2cc(OC[C@@H]3CN(C)CCO3)cc(C(=O)N[C@H](C)c3cnc(C(F)(F)F)nc3)c2)s1 [Example 351] | nM | 16 |
| Cc1ccc(Oc2cc(C(=O)N[C@H](C)c3cnc(C)cn3)cc(-c3ncc(C)s3)c2)cn1 [Example 131] | nM | 134 |
| Cc1cnc(-c2cc(OC3COC3)cc(C(=O)N[C@H](C)c3cnc(C(F)F)nc3)c2)s1 [Example 152] | nM | 45 |
| Cc1cnc(-c2cc(O[C@H]3CCN(C)C3)cc(C(=O)N[C@H](C)c3cnc(C(F)(F)F)nc3)c2)s1 [Example 142] | nM | 6 |
| Cc1cnc([C@@H](C)NC(=O)c2cc(Oc3nnc(C)s3)cc(-c3ncc(C)s3)c2)cn1 [Example 109] | nM | 235 |
| CCN1CCO[C@H](COc2cc(C(=O)N[C@H](C)c3cnc(C(F)(F)F)nc3)cc(-c3ncc(C)s3)c2)C1 [Example 411] | nM | 20 |

====

# testTarget: human P2X3 receptor (Homo sapiens (Human))
# assayName: Intracellular calcium measurement (FLIPR, Fluo-4) of antagonist activity at human P2X3 receptors
# Format: cell-based
# conditionInfo: human P2X3, FLIPR calcium assay, agonist α,β-Me-ATP; read-out: hP2X3 IC50
# Method: Intracellular Calcium Measurement to Assess Antagonist Activity at Human P2X3 and Human P2X2/3 Receptors A fluorescent imaging plate reader (FLEX/FLIPR station; Molecular Devices) was used to monitor intracellular calcium levels using the calcium-chelating dye Fluo-4 (Molecular Probes). […] The fluorescence was measured for an interval of 90 sec at 2 sec intervals and analyzed based on the increase in peak relative fluorescence units (RFU) compared to the basal fluorescence. […]
metric: IC50 (nM)

| compound | assayValue |
| --- | --- |
| Cc1cnc(-c2cc(OC[C@@H]3COCC(=O)N3C)cc(C(=O)N[C@H](C)c3cnc(C(F)(F)F)nc3)c2)s1 | 21 |
| CC(C)c1cnc(-c2cc(OC[C@@H]3CCCO3)cc(C(=O)N[C@H](C)c3ccc(C(F)(F)F)nn3)c2)s1 | 91 |
| CCc1cnc(-c2cc(O[C@H]3CCOC3)cc(C(=O)N[C@H](C)c3cnc(C(F)(F)F)nc3)c2)s1 | 5 |
| Cc1cnc(-c2cc(OC3CN(C(C)C)C3)cc(C(=O)N[C@H](C)c3cnc(C(F)(F)F)nc3)c2)s1 | 44 |
| COC(=O)N1CC2(COc3cc(C(=O)N[C@H](C)c4cnc(C(F)(F)F)nc4)cc(-c4ncc(C)s4)c3)CC1CO2 (some centres unmarked) | 22 |
| Cc1cc(Oc2cc(C(=O)N[C@H](C)c3cnc(C(F)(F)F)nc3)cc(-c3ncc(C)s3)c2)ccn1 | 2 |
| Cc1cnc(-c2cc(OC3CCNC(C(F)(F)F)C3)cc(C(=O)N[C@H](C)c3cnc(C(F)(F)F)nc3)c2)s1 (single isomer, unassigned) [Example 207] | 5 |
| Cc1cnc(-c2cc(O[C@@H]3CCOC3)cc(C(=O)N[C@H](C)c3nnc(C)s3)c2)s1 | 35 |
| Cc1cnc([C@@H](C)NC(=O)c2cc(OC3CCN(CC(F)F)CC3)cc(-c3ncc(C)s3)c2)cn1 | 42 |
| Cc1cnc(-c2cc(O[C@H]3CCOC3)cc(C(=O)N[C@H](C)c3cnc(C(F)F)nc3)c2)s1 | 31 |
| C#CCOc1cc(C(=O)N[C@H](C)c2cnc(C(F)(F)F)nc2)cc(-c2ncc(C)s2)c1 | 14 |
| Cc1cnc(-c2cc(OC[C@]3(F)CCCNC3)cc(C(=O)NC(C)c3cnc(C(F)(F)F)nc3)c2)s1 (single isomer, unassigned) | 9 |
| Cc1cnc(-c2cc(OC[C@H]3CCCN3C)cc(C(=O)N[C@H](C)c3cnc(C(F)(F)F)nc3)c2)s1 | 42 |
| Cc1cnc([C@@H](C)NC(=O)c2cc(OC[C@@H]3CCOC3)cc(-c3ncc(C)s3)c2)cn1 | 14 |
